Values compiled from ChEMBL document CHEMBL6096693.

Biological target: Bifunctional dihydrofolate reductase-thymidylate synthase (Plasmodium falciparum K1)
Sequence (P13922 whole entry): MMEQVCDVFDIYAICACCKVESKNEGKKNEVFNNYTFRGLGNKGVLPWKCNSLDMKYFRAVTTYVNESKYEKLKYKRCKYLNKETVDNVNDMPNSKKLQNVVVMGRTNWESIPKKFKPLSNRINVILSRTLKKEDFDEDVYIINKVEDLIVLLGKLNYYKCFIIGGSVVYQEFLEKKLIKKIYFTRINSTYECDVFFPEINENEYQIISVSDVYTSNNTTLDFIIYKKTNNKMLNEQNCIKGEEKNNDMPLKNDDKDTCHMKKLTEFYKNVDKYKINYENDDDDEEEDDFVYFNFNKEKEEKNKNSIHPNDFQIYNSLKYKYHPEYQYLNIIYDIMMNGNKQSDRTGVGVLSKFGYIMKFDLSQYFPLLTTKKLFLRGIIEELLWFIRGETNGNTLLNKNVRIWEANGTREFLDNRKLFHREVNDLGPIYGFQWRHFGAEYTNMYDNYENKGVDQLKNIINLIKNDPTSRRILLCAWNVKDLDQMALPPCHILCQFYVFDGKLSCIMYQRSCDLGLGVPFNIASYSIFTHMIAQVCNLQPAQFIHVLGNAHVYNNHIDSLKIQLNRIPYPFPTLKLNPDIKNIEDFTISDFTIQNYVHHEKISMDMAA
Assay: Binding affinity to Plasmodium falciparum DHFR assessed as inhibition constant
pKi: −log10 of the molar value.
assay.metric: pKi

Summary for this compound, "O=C(O)c1cccc(-c2ccncc2)c1" : pKi is < 3.30

###

Biological target: Bromodomain-containing protein 4 (Homo sapiens, UniProt O60885)
Test: Inhibition of BRD4 BD1 (unknown origin) using biotinylated tetra-acetylated H4 peptide SGRG-K(Ac)-GG-K(Ac)-GLG-K(Ac)-GGA-K(Ac)-RHRK-Biotin as substrate incubated for 60 mins by TR-FRET analysis
assay.metric: pIC50
Lab note — pIC50 values are minus log10 of concentrations in M.

{"structure.smiles.string": "Cn1cc(-c2onc(C(=O)O)c2CO)c2ccccc21", "target": "Bromodomain-containing protein 4 (Homo sapiens, UniProt O60885)", "pIC50": 6.04}
{"structure.smiles.string": "Cc1cc(C)on1", "target": "Bromodomain-containing protein 4 (Homo sapiens, UniProt O60885)", "pIC50": 4.08}
{"structure.smiles.string": "CCNC(=O)[C@H](C)NC(=O)Cn1cc(-c2c(C)noc2C)cn1", "target": "Bromodomain-containing protein 4 (Homo sapiens, UniProt O60885)", "pIC50": 7.30}

Summary for this molecule, "O=C(O)c1cc(-c2c[nH]c3ccccc23)on1" : pIC50 is 4.01

###

Target: ATPase family AAA domain-containing protein 2 (Homo sapiens)
Sequence (Q6PL18 whole entry, the tested form may be a part): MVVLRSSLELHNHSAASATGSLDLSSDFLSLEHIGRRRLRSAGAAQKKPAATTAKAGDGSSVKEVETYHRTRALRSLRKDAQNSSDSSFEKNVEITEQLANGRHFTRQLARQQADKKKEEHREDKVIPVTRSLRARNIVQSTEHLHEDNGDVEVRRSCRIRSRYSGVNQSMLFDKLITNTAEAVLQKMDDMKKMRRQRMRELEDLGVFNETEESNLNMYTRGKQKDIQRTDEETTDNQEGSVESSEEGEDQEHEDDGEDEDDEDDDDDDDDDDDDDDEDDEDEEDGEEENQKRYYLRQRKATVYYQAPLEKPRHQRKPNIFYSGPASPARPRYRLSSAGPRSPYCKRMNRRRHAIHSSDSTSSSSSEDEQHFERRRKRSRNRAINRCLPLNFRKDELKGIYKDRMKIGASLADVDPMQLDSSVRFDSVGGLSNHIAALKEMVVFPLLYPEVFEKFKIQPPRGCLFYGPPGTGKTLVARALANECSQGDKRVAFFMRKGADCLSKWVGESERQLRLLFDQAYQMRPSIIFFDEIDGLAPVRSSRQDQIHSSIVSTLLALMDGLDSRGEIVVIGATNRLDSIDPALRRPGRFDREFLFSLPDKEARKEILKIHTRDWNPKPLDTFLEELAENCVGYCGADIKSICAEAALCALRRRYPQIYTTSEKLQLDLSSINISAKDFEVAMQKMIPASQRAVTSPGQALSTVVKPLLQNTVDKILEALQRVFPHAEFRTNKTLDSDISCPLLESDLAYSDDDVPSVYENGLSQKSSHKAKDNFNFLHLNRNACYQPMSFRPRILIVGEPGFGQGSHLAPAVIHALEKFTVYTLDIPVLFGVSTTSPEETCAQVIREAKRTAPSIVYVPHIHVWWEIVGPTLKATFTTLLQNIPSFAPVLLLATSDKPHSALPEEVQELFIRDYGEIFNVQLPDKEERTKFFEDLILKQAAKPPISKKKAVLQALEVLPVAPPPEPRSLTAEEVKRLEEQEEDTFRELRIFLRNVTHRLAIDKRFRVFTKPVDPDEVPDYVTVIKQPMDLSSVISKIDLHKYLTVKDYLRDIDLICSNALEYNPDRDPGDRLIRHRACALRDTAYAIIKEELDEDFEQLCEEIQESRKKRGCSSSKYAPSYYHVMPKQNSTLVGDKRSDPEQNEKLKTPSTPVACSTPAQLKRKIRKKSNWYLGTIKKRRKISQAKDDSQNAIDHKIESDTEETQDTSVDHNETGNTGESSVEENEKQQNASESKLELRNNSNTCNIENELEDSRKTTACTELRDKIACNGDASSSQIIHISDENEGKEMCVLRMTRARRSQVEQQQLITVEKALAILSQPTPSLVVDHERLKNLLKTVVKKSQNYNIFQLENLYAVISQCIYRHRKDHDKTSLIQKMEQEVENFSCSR
Experiment: Inhibition of recombinant ATAD2 bromodomain (unknown origin) by TR-FRET assay
assay.metric: IC50 (µM)
Respond with the bare value in µM.

Summary for this compound, Cn1c(=O)c2[nH]cnc2n(C)c1=O [THEOPHYLLINE ANHYDROUS] : IC50 is 320

###

Target: Coagulation factor XII (Homo sapiens)
Sequence (P00748 20-372 limits assumed): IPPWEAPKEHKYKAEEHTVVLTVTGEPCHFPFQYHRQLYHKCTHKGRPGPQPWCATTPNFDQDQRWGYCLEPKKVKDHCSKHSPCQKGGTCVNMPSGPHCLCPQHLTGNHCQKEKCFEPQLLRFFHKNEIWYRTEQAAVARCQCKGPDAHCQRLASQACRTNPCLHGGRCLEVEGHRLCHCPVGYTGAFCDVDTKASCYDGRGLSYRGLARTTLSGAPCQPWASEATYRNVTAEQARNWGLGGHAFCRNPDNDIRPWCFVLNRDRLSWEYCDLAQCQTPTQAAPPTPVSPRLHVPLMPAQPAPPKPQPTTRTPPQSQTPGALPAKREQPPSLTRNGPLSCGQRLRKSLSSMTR
Sequence (P00748 373-615 limits assumed): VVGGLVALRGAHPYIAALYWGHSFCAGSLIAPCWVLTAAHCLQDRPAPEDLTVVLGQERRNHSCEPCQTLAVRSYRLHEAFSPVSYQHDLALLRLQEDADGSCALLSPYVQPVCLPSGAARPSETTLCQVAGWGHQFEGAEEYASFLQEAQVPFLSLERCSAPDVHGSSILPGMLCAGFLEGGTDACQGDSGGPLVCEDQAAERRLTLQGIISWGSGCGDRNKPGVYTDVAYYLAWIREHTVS
assay.metric: IC50

Form: item "O=C(Nc1ccc(C(=O)N[C@H]2c3cccc(O)c3C[C@H]2C(=O)O)cc1)NC1CC1" ; test system Coagulation factor XII (Homo sapiens); IC50: 390 µM

###

Assay: Inhibition of SARS-CoV2 Mac1 extracted from Escherichia coli Rosetta2 (DE3)
Design: species or system Severe acute respiratory syndrome coronavirus 2
pIC50: −log10 of the molar value.
assay.metric: pIC50

Summary for this molecule, "O=C(Nc1ccc(C(=O)N[C@H]2c3cccc(O)c3C[C@H]2C(=O)O)cc1)NC1CC1" : pIC50 is < 3.74
